concentration at 1 h values, listed per item
test: Plasma concentration in CD2F1 mouse at 200 mg/kg, sc administered as single dose measured after 1 hr by HPLC-fluorescence analysis; format: ADME, organism-based

# query: concentration at 1 h of entry [2H]C([2H])([2H])C(=CCC/C(C)=C/CC/C(C)=C/CC[C@]1(C)CCc2cc(O)cc(C)c2O1)C([2H])([2H])[2H] 800 to 1000 ng/mL

Suppose we examine the molecule CC(C)=CCC/C(C)=C/CC/C(C)=C/CC[C@]1(C)CCc2cc(O)cc(C)c2O1 ; what concentration at 1 h value has been reported? 800 to 1000 ng/mL

Origin of values: ChEMBL document CHEMBL4622838
